Parameter 'readout' = IC50; parameter 'system' = UniProt P49840.
Sequence (P49840 whole entry): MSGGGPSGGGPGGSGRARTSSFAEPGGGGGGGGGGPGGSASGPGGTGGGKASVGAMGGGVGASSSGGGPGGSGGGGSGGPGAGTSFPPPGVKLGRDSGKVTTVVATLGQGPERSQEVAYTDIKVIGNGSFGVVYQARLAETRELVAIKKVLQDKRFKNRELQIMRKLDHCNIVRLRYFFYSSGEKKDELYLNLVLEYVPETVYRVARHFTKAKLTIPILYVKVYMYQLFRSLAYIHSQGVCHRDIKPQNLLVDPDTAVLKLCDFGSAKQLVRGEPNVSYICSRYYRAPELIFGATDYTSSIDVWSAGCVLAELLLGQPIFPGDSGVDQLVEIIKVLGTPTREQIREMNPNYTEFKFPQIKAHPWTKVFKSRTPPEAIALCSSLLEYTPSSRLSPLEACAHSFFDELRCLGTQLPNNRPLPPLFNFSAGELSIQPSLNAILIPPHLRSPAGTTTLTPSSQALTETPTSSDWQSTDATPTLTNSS

Examples with their reported IC50 follow.
- MOLECULE: "CC[C@]1(c2cccc(-c3cn(C)nc3C)c2)C2=C(CC(C)(C)NC2=O)NC2N=NC(F)=C21 (stereo not given in full) [US20250313563, Compound 949176]"
  SYSTEM: "UniProt P49840"
  RESULT: "1000 to 5000 nM"
- MOLECULE: "CCC1(c2cccc(-c3cnnn3C(C)C)c2)C2=CN=NC2NC2=C1C(=O)CC(C)(C)C2 (stereo not given) [US20250313563, Compound 947397]"
  SYSTEM: "UniProt P49840"
  RESULT: "< 100 nM"

Fill in: IC50 on UniProt P49840, entry CC[C@@]1(c2cccc(C(F)(F)F)c2)C2=CN=NC2NC2=C1C(=O)N(C)C[C@H]2C (stereo not given in full) [US20250313563, Compound 883982]
> 5000 nM

Provide the reported IC50 (system: UniProt P49840) for CC[C@]1(c2cccc(-c3cc(C)ncc3C)c2)C2=C(CC(C)(C)CC2=O)NC2N=NC(C)=C21 (stereo not given in full) [US20250313563, Compound 913050]
< 100 nM

Provide measured IC50 on UniProt P49840 for CCC1(c2cccc(S(=O)(=O)CC3CC3)c2)C2=CN=NC2NC2=C1C(=O)NC(C)(C)C2 (stereo not given) [US20250313563, Compound 948177] please.
< 100 nM

Give UniProt P49840 IC50 for the following molecule: CC[C@@]1(c2cccc(-c3ccncc3F)c2)C2=C(CC(C)(C)NC2=O)NC2N=NC(F)=C21 (stereo not given in full) [US20250313563, Compound 949651]
100 to 1000 nM

Look up UniProt P49840 data: IC50 of Cn1cc(-c2cccc([C@@]3(C)C4=C(CC(C)(C)CC4=O)NC4=C3C(CC(C)(C)C)N=N4)c2)cn1 (stereo not given in full) [US20250313563, Compound 126367] , then report it.
> 5000 nM

Give the observed IC50 of CC[C@@]1(c2cccc(-c3cc(C)ncc3F)c2)C2=C(CC(C)(C)NC2=O)NC2N=NC(C)=C21 (stereo not given in full) [US20250313563, Compound 949338] for UniProt P49840.
< 100 nM

Tell me its IC50 on UniProt P49840: CCC1(c2cccc(N3CCCC3)c2)C2=C(CC(C)(C)CC2=O)NC2N=NC(C)=C21 (stereo not given) [US20250313563, Compound 874314]
< 100 nM

Send back UniProt P49840 IC50 of CC[C@@]1(c2cccc(-c3cnn(CCN4CCCC4)c3)c2)C2=CN=NC2NC2=C1C(=O)NC(C)(C)C2 (stereo not given in full) [US20250313563, Compound 952022] only.
100 to 1000 nM

Fetch value of IC50 on UniProt P49840 for CC[C@]1(c2cccc(N(C)c3cc(C)ccn3)c2)C2=CN=NC2NC2=C1C(=O)CC(C)(C)C2 (stereo not given in full) [US20250313563, Compound 945616] .
> 5000 nM

Report the value of IC50 obtained on UniProt P49840 for CC[C@@]1(c2cccc(-c3ccncc3)c2)C2=CN=NC2NC2=C1C(=O)CC(C)(C)C2 (stereo not given in full) [US20250313563, Compound 801413] .
100 to 1000 nM

// fetch IC50 for CCC1(c2cccc(SC)c2)C2=CN=NC2NC2=C1C(=O)CC(C)(C)C2 (stereo not given) [US20250313563, Compound 810508] ; system: UniProt P49840
< 100 nM

Check UniProt P49840 data and give IC50 for CCC1(c2cccc(C(F)(F)F)c2)C2=CN=NC2NC2=C1C(=O)N(c1cncnc1)CC2 (stereo not given) [US20250313563, Compound 948238] .
< 100 nM

Would you please give the reported IC50 of CC[C@@]1(c2cccc(-c3cnn(-c4cccnc4)c3)c2)C2=CN=NC2NC2=C1C(=O)NC(C)(C)C2 (stereo not given in full) [US20250313563, Compound 952024] with UniProt P49840?
100 to 1000 nM

With UniProt P49840 as the test system, provide measured IC50 for this molecule: Cn1nc(C(F)(F)F)cc1S(=O)(=O)N1CCC2(CC1)C1=C(N=NC1)NC1=C2C(=O)CC(C)(C)C1 [US20250313563, Compound 947606]
< 100 nM

Please look at CC1(C)CC(=O)C2=C(C1)NC1=C(CN=N1)C21CN(S(=O)(=O)c2cccc(F)c2)C1 [US20250313563, Compound 918278] and tell me its recorded IC50 on UniProt P49840.
< 100 nM

Look up and report measured IC50 (UniProt P49840) for the following molecule: CCC1(c2cccc(-c3ccnc(C)c3)c2)C2=CN=NC2NC2=C1C(=O)N(C)C(C)(C)C2 (stereo not given) [US20250313563, Compound 948302]
< 100 nM
